- Tested on: GENE-TOX genotoxicity assays, various organisms and cells
- assay: GENE-TOX mutagenicity studies
- assay.context: Species/Cell Type: Human; Assay Type: Sister-chromatid exchange (SCE) in vitro; Assay Code: SC1-; Evaluation Type: Evaluation B (Post-1980)
The source made the active and inactive calls. No rule for the calls is given here. Bridge positions count the residues as written; N and C are the ends. Square brackets hold non-standard residues; d marks the D form. Peptide text beside a SMILES is read from it. * marks the point of attachment. ξ: configuration not given here. Heptanoyl(5-Me) = CCC(C)CCCC(=O)*; ξThr(3R) = C[C@@H](O)C(N)C(=O)O; dDab = NCC[C@@H](N)C(=O)O; Dab = NCC[C@H](N)C(=O)O
parameter: mutagenic call

CCC(C)CCCC(=O)N[C@@H](CCN)C(=O)N[C@H](C(=O)N[C@@H](CCN)C(=O)N[C@H]1CCNC(=O)C([C@@H](C)O)NC(=O)[C@@H](CCN)NC(=O)[C@H](CCN)NC(=O)[C@@H](CC(C)C)NC(=O)[C@@H](CC(C)C)NC(=O)[C@H](CCN)NC1=O)[C@@H](C)O (stereo partly drawn) ({Heptanoyl(5-Me)}-[Dab]T[Dab][Dab][Dab][dL][dL][Dab][dDab][ξThr(3R)]; lactam 4-C) : inactive; negative
[Cl][Cr]([Cl])[Cl] : inactive; negative
CC(=O)Nc1ccc2c(c1)Cc1cc(O)ccc1-2 : inactive; negative
